SYSTEM: HIV-1 Env of CM244.ec1 (HIV-1)
METHOD_SUMMARY: cell-based or functional assay
Quick reference: neutralization IC50 of the listed items.
RECORDED_ENDPOINT: neutralization IC50

CAP256-VRC26.11 (antibody, V domains shown) VH: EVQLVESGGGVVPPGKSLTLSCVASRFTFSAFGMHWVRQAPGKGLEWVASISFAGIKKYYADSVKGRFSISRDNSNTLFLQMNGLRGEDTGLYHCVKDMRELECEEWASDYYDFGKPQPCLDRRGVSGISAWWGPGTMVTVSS VL: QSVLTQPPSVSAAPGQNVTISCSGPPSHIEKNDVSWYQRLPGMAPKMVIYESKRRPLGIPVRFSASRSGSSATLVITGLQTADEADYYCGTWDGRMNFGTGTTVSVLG
26.7 µg/mL
CAP256-VRC26.07 (antibody, V domains shown) VH: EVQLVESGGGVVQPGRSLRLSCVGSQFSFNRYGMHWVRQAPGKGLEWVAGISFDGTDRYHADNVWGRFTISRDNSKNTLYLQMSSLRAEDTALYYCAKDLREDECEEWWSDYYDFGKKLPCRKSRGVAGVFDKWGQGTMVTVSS VL: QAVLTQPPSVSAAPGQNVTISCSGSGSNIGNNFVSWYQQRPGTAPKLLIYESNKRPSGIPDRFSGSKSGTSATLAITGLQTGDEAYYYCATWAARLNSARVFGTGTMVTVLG
40.1 µg/mL
CAP256-VRC26.04 (antibody, V domains shown) VH: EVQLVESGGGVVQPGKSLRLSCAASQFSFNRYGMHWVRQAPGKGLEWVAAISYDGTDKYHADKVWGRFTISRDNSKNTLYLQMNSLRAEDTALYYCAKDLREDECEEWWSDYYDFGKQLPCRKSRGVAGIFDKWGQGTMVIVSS VL: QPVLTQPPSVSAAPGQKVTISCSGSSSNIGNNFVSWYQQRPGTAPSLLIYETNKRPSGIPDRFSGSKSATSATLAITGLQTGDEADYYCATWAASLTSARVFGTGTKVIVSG
0.361 µg/mL
